Target: human CD3 on cells (human PBMC; Jurkat TCR/CD3 NFAT reporter cells) (human, UniProt P07766 23-207; P04234 22-171; P09693 23-182)
Sequence (P07766 23-207, chain 1 of 3): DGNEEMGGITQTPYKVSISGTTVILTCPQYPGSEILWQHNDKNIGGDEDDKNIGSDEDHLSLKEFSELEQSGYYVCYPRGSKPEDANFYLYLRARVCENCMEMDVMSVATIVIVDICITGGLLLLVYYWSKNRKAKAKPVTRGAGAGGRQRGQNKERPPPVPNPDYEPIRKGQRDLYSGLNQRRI
Sequence (P04234 22-171, chain 2 of 3): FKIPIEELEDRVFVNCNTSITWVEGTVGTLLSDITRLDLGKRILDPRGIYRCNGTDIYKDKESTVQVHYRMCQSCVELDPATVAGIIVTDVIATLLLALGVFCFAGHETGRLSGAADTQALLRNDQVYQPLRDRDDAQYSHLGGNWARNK
Sequence (P09693 23-182, chain 3 of 3): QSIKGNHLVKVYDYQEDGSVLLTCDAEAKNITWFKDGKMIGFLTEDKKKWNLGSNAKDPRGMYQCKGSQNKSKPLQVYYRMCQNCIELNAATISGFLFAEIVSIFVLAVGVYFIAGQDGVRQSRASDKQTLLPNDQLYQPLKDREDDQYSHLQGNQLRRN
Experiment: cell-based or functional assay
Listing of recorded CD3-NFAT Activity by CD3 mAb by entry.

Illustrative cases are given below, each with its answer.
Hu192A7B9-22 (antibody, V domains shown, humanized mAb) VH: EVQLQESGPGLVKPSETLSLTCTVSGGSISSYNVHWVRQPPGKGLEWMGRMRYNGDTSYNSALKSRLTISRDTSKNQFSLKLSSVTAADTAVYYCTRGPRGGYYSALFDYWGQGTMVTVSS VL: DIQMTQSPSSLSASVGDRVTITCKASQNINRYLNWYQQKPGKAPKVLISIANSLQTGIPSRFSGSGSGTDFTLTISSLQPEDFATYFCLQHNSWYTFGQGTKLEIK | > 50 % SP34
Hu155A9B1-10 (antibody, V domains shown, humanized mAb) VH: EVQLQESGPGLVKPSETLSLTCTVSGGSISSYNVHWVRQPPGKGLEWMGRVRYNGDTSYNSALKSRLTISRDTSKNQFSLKLSSVTAADTAVYYCTRGPYGGSSEPLFDYWGQGTMVTVSS VL: DIQMTQSPSSLSASVGDRVTITCKASQNINKYLNWFQQKPGKAPRLLIYTTNNLQTGIPSRFSGSGSGTDFTLTISSLQPEDFATYYCLQHNSGYTFGQGTKLEIK | ≤ 50 % SP34
Hu153A6B1-7 (antibody, V domains shown, humanized mAb) VH: EVQLQESGPGLVKPSETLSLTCTVSGGSISSYNIHWIRQPPGKGLEWIGRIRYNGDTSYNSALKSRVTISVDTSKNQFSLKLSSVTAADTAVYYCARGPYGGSREPLFDYWGQGTMVTVSS VL: DIQMTQSPSSLSASVGDRVTITCKTSQNINKYLNWFQQKPGKAPKLLIYTTNNLQTGIPSRFSGSGSGTDFTLTISSLQPEDFATYYCLQHGSGYTFGQGTKLEIK | ≤ 50 % SP34
Hu153A6B1-10 (antibody, V domains shown, humanized mAb) VH: EVQLQESGPGLVKPSETLSLTCTVSGGSISSYNIHWVRQPPGKGLEWMGRIRYNGDTSYNSALKSRLTISRDTSKNQFSLKLSSVTAADTAVYYCTRGPYGGSREPLFDYWGQGTMVTVSS VL: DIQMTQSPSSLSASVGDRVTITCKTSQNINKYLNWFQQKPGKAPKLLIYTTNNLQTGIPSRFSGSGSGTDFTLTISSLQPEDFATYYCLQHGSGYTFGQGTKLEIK | > 50 % SP34
Hu153A6B1-12 (antibody, V domains shown, humanized mAb) VH: EVQLQESGPGLVKPSETLSLTCTVSGFSLTSYNIHWVRQPPGKGLEWMGRIRYNGDTSYNSALKSRLTISRDTSKNQVSLKLSSVTAADTAVYYCTRGPYGGSREPLFDYWGQGTMVTVSS VL: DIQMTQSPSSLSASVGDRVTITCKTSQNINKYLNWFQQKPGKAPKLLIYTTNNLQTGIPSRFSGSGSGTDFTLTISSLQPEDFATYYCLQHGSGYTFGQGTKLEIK | > 50 % SP34

Return CD3-NFAT Activity by CD3 mAb (reported value) for this binder: Hu155A9B1-1 (antibody, V domains shown, humanized mAb) VH: EVQLQESGPGLVKPSETLSLTCTVSGGSISSYNVHWIRQPPGKGLEWIGRVRYNGDTSYNSALKSRVTISVDTSKNQFSLKLSSVTAADTAVYYCARGPYGGSSEPLFDYWGQGTMVTVSS VL: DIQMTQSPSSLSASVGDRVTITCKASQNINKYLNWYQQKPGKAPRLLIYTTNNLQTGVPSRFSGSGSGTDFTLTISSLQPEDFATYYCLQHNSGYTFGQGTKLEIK
≤ 50 % SP34

Kindly indicate its recorded CD3-NFAT Activity by CD3 mAb. Item: Hu155A9B1-18 (antibody, V domains shown, humanized mAb) VH: EVQLQESGPGLVKPSETLSLTCTVSGFSLTSYNVHWVRQPPGKGLEWMGRVRYNGDTSYNSALKSRLTISRDTSKNQASLKLSSVTAADTAVYYCTRGPYGGSSEPLFDYWGQGTMVTVSS VL: DIQMTQSPSSLSASVGDRVTITCKASQNINKYLNWFQQKPGKAPRLLIYTTNNLQTGIPSRFSGSGSGTDFTLTISSLQPEDFATYFCLQHNSGYTFGQGTKLEIK
> 50 % SP34

Look up and report measured CD3-NFAT Activity by CD3 mAb for this entry: Hu192A7B9-17 (antibody, V domains shown, humanized mAb) VH: EVQLQESGPGLVKPSETLSLTCTVSGFSISSYNVHWVRQPPGKGLEWMGRMRYNGDTSYNSALKSRLTISRDTSKNQVSLKLSSVTAADTAVYYCTRGPRGGYYSALFDYWGQGTMVTVSS VL: DIQMTQSPSSLSASVGDRVTITCKASQNINRYLNWYQQKPGKAPKLLISIANSLQTGIPSRFSGSGSGTDFTLTISSLQPEDFATYYCLQHNSWYTFGQGTKLEIK
> 50 % SP34

Recall and state the measured CD3-NFAT Activity by CD3 mAb for Hu155A9B1-4 (antibody, V domains shown, humanized mAb) VH: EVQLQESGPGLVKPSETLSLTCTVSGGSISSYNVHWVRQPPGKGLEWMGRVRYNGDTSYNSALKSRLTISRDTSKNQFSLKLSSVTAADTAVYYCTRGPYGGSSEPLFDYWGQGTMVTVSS VL: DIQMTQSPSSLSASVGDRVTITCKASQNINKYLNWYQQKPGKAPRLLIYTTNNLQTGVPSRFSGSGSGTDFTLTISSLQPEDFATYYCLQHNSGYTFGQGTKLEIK .
≤ 50 % SP34

Tell me CD3-NFAT Activity by CD3 mAb reported for Hu192A7B9-19 (antibody, V domains shown, humanized mAb) VH: EVQLQESGPGLVKPSETLSLTCTVSGGSISSYNVHWIRQPPGKGLEWIGRMRYNGDTSYNSALKSRVTISVDTSKNQFSLKLSSVTAADTAVYYCARGPRGGYYSALFDYWGQGTMVTVSS VL: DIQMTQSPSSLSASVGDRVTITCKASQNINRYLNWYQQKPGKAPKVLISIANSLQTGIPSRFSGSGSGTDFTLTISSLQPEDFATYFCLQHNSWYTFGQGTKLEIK
> 50 % SP34
